Values compiled from paper PMC3970809.

target: D-glucose/D-galactose-binding protein (GGBP), mutant form GGBP/H152C labeled with BADAN (Escherichia coli, UniProt P0AEE5, H175C); construct: GGBP/H152C-BADAN (BADAN linked to Cys 152); experiment: BADAN fluorescence titration (Kd by nonlinear regression); stopped-flow binding kinetics
Sequence (P0AEE5 24-332 H175C limits assumed): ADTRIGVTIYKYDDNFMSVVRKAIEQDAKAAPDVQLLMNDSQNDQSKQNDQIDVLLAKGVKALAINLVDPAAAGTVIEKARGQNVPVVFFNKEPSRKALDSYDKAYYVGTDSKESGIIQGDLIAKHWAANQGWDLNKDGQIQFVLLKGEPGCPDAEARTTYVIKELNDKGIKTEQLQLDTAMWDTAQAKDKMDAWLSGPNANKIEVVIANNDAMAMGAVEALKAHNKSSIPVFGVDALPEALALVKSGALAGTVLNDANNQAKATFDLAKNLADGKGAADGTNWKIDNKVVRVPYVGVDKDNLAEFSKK
measureName: pKd
Give bare numbers, as −log10 of the molar value.

Which pKd is listed for OC[C@H]1OC(O)[C@H](O)[C@@H](O)[C@@H]1O (stereo partly shown) ?
5.07
